The values you see were collected from PubChem BioAssay (EPA / NIEHS).

experiment: ATG_MRE_CIS: Attagene CIS-FACTORIAL HepG2 Assay for human Metal Responsive Element (MRE) (AID 2282954); conditions: HepG2 MRE cis-reporter transcription, Attagene multiplex; actives raise or lower the signal
Active and inactive are the calls of the source. How the source made its calls: active means hit-call score of the fitted dose curve at least 0.9, where 1 is the maximum; inactive means score below 0.9.
Hi! Could you answer with just one of these? yes (1) for active, no (0) for inactive

ClCc1ccccc1Cl | no (0)
C=C(C)C(=O)OCC(CC)CCCC (stereo not given) | no (0)
N#Cc1ccccc1Cl | no (0)
CCOC(=O)CCN(SN(C)C(=O)Oc1cccc2c1OC(C)(C)C2)C(C)C | yes (1)
Oc1cc(Cl)c(Cl)cc1Cl | yes (1)

Recorded test call requested for Cc1cc(Cl)ccc1OCCCC(=O)O no (0)

Recorded test call requested for OCCN(CCO)CCO no (0)

Recorded test call requested for Nc1ccc(N)cc1 no (0)

Recorded test call requested for O=C(Nc1ccc(Br)cc1)c1cc(Br)cc(Br)c1O yes (1)

Recorded test call requested for O=[N+]([O-])c1cccc2ccccc12 no (0)

Recorded test call requested for C[C@H]1C(=O)O[C@@H]2CCN3CC=C(COC(=O)[C@](C)(O)[C@]1(C)O)[C@H]23 no (0)

Recorded test call requested for N#CCC#N no (0)

Recorded test call requested for O=C(CCl)NCO no (0)

Recorded test call requested for CCCCC(CC)COC(=O)Cl (stereo not given) no (0)

Recorded test call requested for O=CCCl yes (1)

---

assay: ATG_XTT_Cytotoxicity: Cytotoxicity Assessment in the Attagene TRANS-FACTORIAL HepG2 Assay (AID 2283584)
Results filed as inconclusive are left out. The source made the active and inactive calls. How the source made its calls: active means hit-call score of the fitted dose curve at least 0.9, where 1 is the maximum; inconclusive means response in the unintended direction; inactive means score below 0.9.
Hi! Could you answer with just one of these? label 1 = active, label 0 = inactive

c1csc(-c2ccc(-c3cccs3)s2)c1 | label 0
CC(=O)CN(CC(C)=O)N=O | label 0
O=[N+]([O-])c1cccc2ccccc12 | label 0
C=CCN=C=S | label 0
O=[N+]([O-])c1ccccc1O | label 0
COCC(=O)N(c1c(C)cccc1C)[C@H](C)C(=O)OC | label 0
BrCc1ccc(Br)cc1 | label 0
CC1(C)[C@H](C(=O)O[C@H](C#N)c2cccc(Oc3ccccc3)c2)[C@@H]1/C=C(\Cl)C(F)(F)F | label 0
O=C(O)CC(O)(CC(=O)O)C(=O)O | label 0
CCN(CCO)CCO | label 0

Recorded test call requested for N#Cc1ccccc1N label 0

Recorded test call requested for N#CCC#N label 0

Recorded test call requested for O=NN1CCCCCCC1 label 0

Recorded test call requested for Cc1cc(C(F)(C(F)(F)F)C(F)(F)F)ccc1NC(=O)c1cccc(I)c1C(=O)NC(C)(C)CS(C)(=O)=O label 0

Recorded test call requested for CNC(=O)O/N=C/C(C)(C)S(C)(=O)=O label 0

Recorded test call requested for CN(C)CCN(C)C label 0

---

read-out: Vascular cell adhesion molecule 1 (VCAM1), VCAM1 (gene 7412); experiment: BSK_hDFCGF_VCAM1: BioMAP Diversity Plus: hDFCGF Assay for Vascular cell adhesion molecule 1 (VCAM1) Biomarker Activity (AID 2283065); settings: primary human foreskin fibroblasts; actives raise or lower the signal;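 on AC50: VCAM-1 protein level quantified by ELISA after 24 h chemical exposure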
Activity calls are given as the source filed them. The calls were made as follows: active = hit-call score of the fitted dose curve at least 0.9, where 1 is the maximum; inactive = score below 0.9.
observable: AC50

COc1ccccc1N | inactive
Cc1ccccc1OP(=O)(Oc1ccccc1)Oc1ccccc1 | 5.06 µM (active)
Clc1cccc(Cl)c1Cl | inactive
CCC(C)(C#N)N=NC(C)(C#N)CC (centres undefined) | inactive
O=C1C=CC(=O)c2ccccc21 | 1.2 µM (active)

Give me measured AC50, please, for this molecule: CC(C)N(C(=O)CCl)c1ccccc1 1.43 µM (active)

Give me measured AC50, please, for this molecule: NC(=O)CCl inactive

Give me measured AC50, please, for this molecule: Clc1cccc(Cl)c1 inactive

Give me measured AC50, please, for this molecule: Cc1cc(Cl)ccc1N inactive
